Assay: qHTS Assay for Inhibitors of Hepatitis C Virus (HCV); on activity change, negative = inhibition: on the % scale 0 is the no-effect control and ±100 the full control effect
Settings: Huh7.5.1 HCVcc-Cre infection, luciferase reporter, 44 h; series mostly up to 41.8 µM
Screen size: about 340,000 compounds; about 12,000 (3.5%) were called active. Inconclusive results (about 18%) are left out. What follows is part of a selection rich in actives, with near analogues and random picks from the rest.
OUTCOME_MEASURE: activity change, negative = inhibition

>>> assay_value("COc1ccc(N2CCN(S(=O)(=O)c3cc4c5c(c3)C(C)C(=O)N5CCC4)CC2)cc1 (centres undefined)")
"0.733% [at 8.37 µM] (inactive)"
>>> assay_value("COC(=O)[C@@]1(C)[C@H]2C(=O)N(Cc3ccccc3)C(=O)[C@H]2[C@H]2CN=C(SCC3CC3)N21")
"-7.38% [at 8.37 µM] (inactive)"
>>> assay_value("CCCN=C1N(C)C[C@@H]2[C@@H]3C(=O)N(Cc4ccccc4)C(=O)[C@@H]3[C@](C)(C(=O)OC)N12")
"12% [at 8.37 µM] (inactive)"
>>> assay_value("CCCn1c(C)cc(-c2csc(NC(=O)CCc3nc4ccccc4c(=O)[nH]3)n2)c1C")
"-6.01% [at 8.37 µM] (inactive)"
>>> assay_value("CCNC(=O)N(CC)C[C@H]1N[C@@](CC)(C(=O)OC)[C@H]2C(=O)N(Cc3ccccc3)C(=O)[C@@H]12")
"23% [at 8.37 µM] (inactive)"
>>> assay_value("CN(C(=O)c1cccc(NC(=O)Cc2ccc(NC(=O)C3CCCN(C(=O)C4CCCC4)C3)cc2)c1)C1CCC1 (centres undefined)")
"-26.3% [at 8.37 µM] (inactive)"
>>> assay_value("CC(=O)c1cccc(-c2ccc(CN3C(CC(C)C)C(=O)N(Cc4cn(CC5CCCCC5)nn4)CCS3(=O)=O)cc2)c1 (centres undefined)")
"-21% [at 8.37 µM] (inactive)"
>>> assay_value("O=C(NCc1ccccc1)c1cccc(NC(=O)C2CCCCC2)c1")
"-17.2% [at 8.37 µM] (inactive)"
>>> assay_value("O=C(COc1coc(CN2CCN(c3ccccc3F)CC2)cc1=O)N1CCc2ccccc21")
"13.6% [at 8.37 µM] (inactive)"

---

Experiment: qHTS Assay for Inhibitors of Hepatitis C Virus (HCV)
Settings: Huh7.5.1 HCVcc-Cre infection, luciferase reporter, 44 h; series mostly up to 41.8 µM
The campaign covered roughly 340,000 compounds. About 12,000 (3.5%) were called active. Roughly 18% stayed inconclusive and do not appear here. The call rests on the fitted dose curve; in most records, active means well fitted inhibition curve with a large enough effect; inconclusive means small, poorly fitted or top-dose-only effect, or another doubt; inactive means no such curve, though single readings can be large or run the other way. The entries come from a sample that favours actives as a whole.
Labels: active, inactive

>>> label("CCCCN1CC(CO)Oc2cccc(F)c2S1(=O)=O (configuration not stated)")
"inactive"
>>> label("CCOC(=O)C1=C(C)N(C[C@@H]2CC[C@@H](Cc3ccc(-c4ccccc4)cc3)O2)C(=O)NC1c1ccc([N+](=O)[O-])cc1 (some centres not stated)")
"active"
>>> label("O=C(N/N=C/c1ccccn1)c1cccnc1")
"inactive"
>>> label("CN(Cc1cccnc1)C(=O)c1cc(COc2ccc3ncccc3c2)on1")
"active"
>>> label("Cc1ccc(Nc2nc(CSc3nnc(-c4ccncc4)n3-c3ccccc3C)cs2)cc1")
"active"
>>> label("Cc1ccc(-n2c(SCC(=O)N3c4ccccc4Sc4ccccc43)nnc2-c2ccncc2)cc1")
"inactive"
>>> label("COc1cccc(NC(=O)CSc2nccn(-c3ccc4c(c3)OCCO4)c2=O)c1")
"inactive"
>>> label("O=C(CCl)N(Cc1cccc([N+](=O)[O-])c1)c1cccc(Cl)c1")
"active"
>>> label("Cc1ccccc1-n1nc(C)c2cc(C(=O)NC3CC3)sc21")
"inactive"
>>> label("COc1cc(C=NNC(=O)c2cccnc2)ccc1OC(=O)c1ccccc1F")
"inactive"
>>> label("CCOC(=O)c1ccccc1C(=O)N1CCOCCOCCOCC1")
"inactive"
>>> label("CN(Cc1cnccn1)C(=O)c1cc(COc2cccc(C(F)(F)F)c2)on1")
"inactive"
>>> label("Cc1cc(OCCCCOc2ccc(C#N)cc2)ccc1[N+](=O)[O-]")
"active"
>>> label("COc1ccccc1CCC(=O)NNC(=O)c1ccncc1")
"inactive"
>>> label("Cc1ccc2c(O)c(Cc3ccccc3)c(=O)[nH]c2n1")
"inactive"
>>> label("Cc1cc(/C=N/NC(=O)c2cccnc2)c(C)n1CC(C)C")
"inactive"
>>> label("Cc1cc(OCC(=O)NC2CCN(C)CC2)ccc1[N+](=O)[O-]")
"inactive"
>>> label("CC1CCCCC1NC(=O)/C(C#N)=C/C=C/c1ccccc1[N+](=O)[O-] (configuration not stated)")
"active"
>>> label("CCOC(=O)N1CCN(C(=O)c2cc3c(-c4ccc(Cl)cc4)nn(C)c3s2)CC1")
"inactive"
>>> label("Cc1cc(C(=O)O)ccc1[N+](=O)[O-]")
"inactive"
>>> label("Cc1ccc(OCc2cc(C(=O)N(C)CCc3ccccc3)no2)cc1C")
"inactive"
>>> label("CCN(CC(=O)Nc1ccccc1C(F)(F)F)C(=O)CSCc1c(C)noc1C")
"inactive"
